STUDY_SYSTEM: AMP-activated protein kinase, AMPK (Homo sapiens) (UniProt P54646+O43741+P54619+Q9UGJ0+Q9Y478+Q13131+Q9UGI9)
PROTOCOL_SUMMARY: AMP-dependent Kinase enzyme assay. An in vitro enzyme assay that detects ADP turnover that is directly proportional to AMPK activity. This uses naive AMPK that is activated during the assay with MK-8722
Type: functional
Parameters: scale not given: direction of the effect not stated beside the values
MEASUREMENT_CONTEXT: 30 µM
What Percent Effect was measured for each of the following?
Numbers only, in %.

Consider the following illustrative entries.
molecule="CC(C)C(C(=O)N1CCCN(Cc2nccn2C)CC1)N1CCCC1 (centres undefined)" value_observed=-0.295
molecule="Cc1nn(C)c2sc(C(=O)N3CCCC(n4ccnc4C)C3)cc12 (centres undefined)" value_observed=3.55
molecule="CCCc1noc(CCC(=O)NC(C)c2nnc3n2CCCCC3)n1 (centres undefined)" value_observed=-6.02
molecule=CS(=O)(=O)NCc1nnc2n1CCN(CC1CC1)C2 value_observed=5.91
molecule="CCc1nccn1C1CCCN(C(=O)c2cn3cccnc3n2)C1 (centres undefined)" value_observed=-8.93

# map each molecule to its Percent Effect
1. Cc1cc(C)c2nc(CN3CCOC(CCO)C3)cc(O)c2c1 (centres undefined)
2. CC(C)N(C)S(=O)(=O)N(C)Cc1ccc2c(c1)OCO2
3. N#Cc1ccc(F)c(CN2CCCC2Cn2cccn2)c1 (centres undefined)
4. Cc1cc(CN2CCc3nn(C(C)C)c(=O)cc3C2)no1

OUTPUT:
1. -1.47
2. -11.7
3. -4.51
4. -5.64
